assay-target: neutral endopeptidase 24.11 (NEP)
protocol-details: Competitive inhibition of neutral endopeptidase (NEP)
condition: read-out: Ki (competitive inhibitor)
Text: The efficacy of endopeptidase inhibitors may be assessed by determining cell numbers and the percent of viable cells (e.g., assessed by trypan blue exclusion) as a function of time in culture in the presence and absence of the endopeptidase inhibitors. In addition the level of neutral endopeptidase activity will be measured and correlated with these parameters. Since the enzyme is on the cell surface its activity can be measured by simply adding substrate to the cell culture. […]
pKi: −log10 of the molar value. Square brackets hold non-standard residues; d marks the D form. Peptide text beside a SMILES is read from it. * marks the point of attachment. BrAc = O=C(CBr)*

compound | assay-target | pKi
CC(C)C[C@@H](NC(=O)CBr)C(=O)NCC(=O)O [BADLG, N-bromoacetyl-D-Leu-Gly] (BrAc-[dL]-Gly-OH) | neutral endopeptidase 24.11 (NEP) | 2.30
